Here's what we have: IC50 numbers for TNIK (Homo sapiens, UniProt Q9UKE5).

{"molecule": "O=C(O)[C@H]1C2CCC(CC2)[C@@H]1Nc1nc(-c2c[nH]c3ncc(F)cc23)ncc1F [VX-787, reference compound]", "subject.of.test": "TNIK (Homo sapiens, UniProt Q9UKE5)", "result": "> 3.33 µM"}

Could you now look at the following molecule, please?
Short answer please: IC50, TNIK (Homo sapiens, UniProt Q9UKE5), entry "O=C(O)[C@H]1C2CCC(CC2)[C@@H]1Nc1nc(-c2n[nH]c3ncc(F)cc23)nc(C2CC2)c1F"
> 10 µM

###

Tested on: HRV 1B
test.details: microbe, parasite or virus in culture
Format: cell-based
cond: Human rhinovirus sp., H1-HeLa, read-out: EC50 for Virus
A collection of molecules and their measured EC50
State the answer as a number, implicitly in µM.

{"molecule": "O=C(O)[C@H]1C2CCC(CC2)[C@@H]1Nc1nc(-c2n[nH]c3ncc(F)cc23)nc(C2CC2)c1F", "EC50 / µM": 7.88}

Short answer please: EC50, HRV 1B, entry Cc1cc(CCCOc2c(C)cc(-c3noc(C(F)(F)F)n3)cc2C)on1 [Pleconaril, reference compound]
0.028

###

subject.of.test: M3 (Homo sapiens)
Sequence (P20309 whole entry): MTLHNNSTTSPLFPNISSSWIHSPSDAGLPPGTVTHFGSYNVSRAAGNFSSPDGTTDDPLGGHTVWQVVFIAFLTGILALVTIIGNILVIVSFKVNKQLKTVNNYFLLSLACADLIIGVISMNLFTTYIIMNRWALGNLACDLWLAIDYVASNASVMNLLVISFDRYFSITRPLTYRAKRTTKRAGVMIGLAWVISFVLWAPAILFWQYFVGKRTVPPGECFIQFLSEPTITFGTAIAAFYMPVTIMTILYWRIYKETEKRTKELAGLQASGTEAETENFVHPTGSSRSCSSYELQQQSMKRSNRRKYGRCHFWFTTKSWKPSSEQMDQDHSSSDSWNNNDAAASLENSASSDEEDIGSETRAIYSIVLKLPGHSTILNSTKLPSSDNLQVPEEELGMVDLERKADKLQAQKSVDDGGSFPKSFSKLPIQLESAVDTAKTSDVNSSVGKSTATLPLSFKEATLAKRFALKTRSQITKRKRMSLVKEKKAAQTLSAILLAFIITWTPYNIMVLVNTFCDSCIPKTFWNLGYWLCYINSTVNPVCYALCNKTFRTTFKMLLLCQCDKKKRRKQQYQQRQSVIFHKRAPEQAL
pIC50: −log10 of the molar value.
property.label: pIC50

Short answer please: pIC50, M3 (Homo sapiens), entry "O=C(O)[C@H]1C2CCC(CC2)[C@@H]1Nc1nc(-c2n[nH]c3ncc(F)cc23)nc(C2CC2)c1F"
< 5.00

###

test.details: in vivo
cond: both, SD, rat, po, 15 mg/kg, Cmax
property.label: Cmax

What Cmax value was documented for this molecule, O=C(O)[C@H]1C2CCC(CC2)[C@@H]1Nc1nc(-c2n[nH]c3ncc(F)cc23)nc(C2CC2)c1F [ZSP1273] ?
5680 ng/mL

###

subject.of.test: H2 (Homo sapiens, UniProt P25021)
Sequence (P25021 whole entry): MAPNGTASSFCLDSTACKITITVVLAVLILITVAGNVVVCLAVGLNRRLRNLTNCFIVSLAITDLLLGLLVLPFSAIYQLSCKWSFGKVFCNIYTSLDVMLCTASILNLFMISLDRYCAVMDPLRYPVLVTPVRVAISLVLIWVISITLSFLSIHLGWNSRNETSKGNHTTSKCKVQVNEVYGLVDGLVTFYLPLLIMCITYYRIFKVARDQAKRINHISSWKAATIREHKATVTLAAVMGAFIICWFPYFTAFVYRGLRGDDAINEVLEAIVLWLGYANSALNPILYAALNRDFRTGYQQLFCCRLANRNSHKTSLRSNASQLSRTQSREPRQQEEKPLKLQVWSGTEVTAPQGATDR
pIC50: −log10 of the molar value.
property.label: pIC50

Short answer please: pIC50, H2 (Homo sapiens, UniProt P25021), entry "O=C(O)[C@H]1C2CCC(CC2)[C@@H]1Nc1nc(-c2n[nH]c3ncc(F)cc23)nc(C2CC2)c1F"
< 5.00

###

test.details: in vitro
cond: human
property.label: CC50

What CC50 value was documented for this compound, "O=C(O)[C@H]1C2CCC(CC2)[C@@H]1Nc1nc(-c2n[nH]c3ncc(F)cc23)nc(C2CC2)c1F" ?
> 10 µM

###

Test system: A/Qingyuan/GIRD01/2017 (H7N9)
test.details: microbe, parasite or virus in culture
Assay type: cell-based, avian influenza virus
cond: Influenza A virus, H7N9, MDCK, read-out: IC50 (mean ± SD)
property.label: pIC50
Entry type: numeric. Quantity: pIC50, the -log10 of concentration in molar units.

Examples with answers:
{"compound": "O=C(O)[C@H]1C2CCC(CC2)[C@@H]1Nc1nc(-c2c[nH]c3ncc(F)cc23)ncc1F [VX-787, reference compound]", "recorded.number": 8.72}
{"compound": "O=C(O)[C@H]1C2CCC(CC2)[C@@H]1Nc1nc(-c2n[nH]c3ncc(F)cc23)nc(C2CC2)c1F [ZSP1273]", "recorded.number": 9.11}

Could you now look at the following compound, please?
What pIC50 value was documented for this compound, CCOC(=O)C1=C[C@@H](OC(CC)CC)[C@H](NC(C)=O)[C@@H](N)C1 [Oseltamivir] ?
2.77

###

subject.of.test: Beta2 (Homo sapiens)
Sequence (P07550 whole entry): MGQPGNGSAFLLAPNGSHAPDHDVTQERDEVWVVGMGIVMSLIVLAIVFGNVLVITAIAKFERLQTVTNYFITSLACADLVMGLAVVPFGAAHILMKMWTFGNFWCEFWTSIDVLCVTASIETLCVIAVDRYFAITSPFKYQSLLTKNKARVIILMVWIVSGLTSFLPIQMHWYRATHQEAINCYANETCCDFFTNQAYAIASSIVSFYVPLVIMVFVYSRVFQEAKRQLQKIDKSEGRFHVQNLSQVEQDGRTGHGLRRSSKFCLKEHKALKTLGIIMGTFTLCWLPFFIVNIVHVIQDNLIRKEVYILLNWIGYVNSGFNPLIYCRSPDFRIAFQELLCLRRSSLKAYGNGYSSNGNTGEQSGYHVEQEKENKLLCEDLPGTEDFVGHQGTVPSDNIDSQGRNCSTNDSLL
pIC50: −log10 of the molar value.
property.label: pIC50

Short answer please: pIC50, Beta2 (Homo sapiens), entry "O=C(O)[C@H]1C2CCC(CC2)[C@@H]1Nc1nc(-c2n[nH]c3ncc(F)cc23)nc(C2CC2)c1F"
< 5.00

###

subject.of.test: D1 (Homo sapiens)
Sequence (P21728 whole entry): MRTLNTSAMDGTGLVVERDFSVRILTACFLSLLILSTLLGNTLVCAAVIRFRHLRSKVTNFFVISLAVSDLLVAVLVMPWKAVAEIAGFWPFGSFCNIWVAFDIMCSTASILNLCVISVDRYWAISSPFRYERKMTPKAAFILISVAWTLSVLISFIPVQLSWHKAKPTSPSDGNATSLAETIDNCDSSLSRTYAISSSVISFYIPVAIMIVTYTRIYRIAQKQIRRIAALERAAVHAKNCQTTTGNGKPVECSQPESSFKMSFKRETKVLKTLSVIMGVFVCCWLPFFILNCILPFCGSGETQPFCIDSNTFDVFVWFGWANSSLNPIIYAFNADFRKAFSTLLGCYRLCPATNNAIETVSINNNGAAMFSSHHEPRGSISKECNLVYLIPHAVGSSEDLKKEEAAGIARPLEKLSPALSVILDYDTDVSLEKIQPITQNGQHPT
test.details: cell-based
property.label: IC50

What IC50 value was documented for this compound, "O=C(O)[C@H]1C2CCC(CC2)[C@@H]1Nc1nc(-c2n[nH]c3ncc(F)cc23)nc(C2CC2)c1F" ?
> 10 µM

###

test.details: in vivo
cond: both, beagle, dog, po, 5 mg/kg
property.label: Tmax (min)
State the answer as a number, implicitly in min.

What Tmax value was documented for this compound, "O=C(O)[C@H]1C2CCC(CC2)[C@@H]1Nc1nc(-c2n[nH]c3ncc(F)cc23)nc(C2CC2)c1F" ?
32.5

###

subject.of.test: M2 (Homo sapiens)
Sequence (P08172 whole entry): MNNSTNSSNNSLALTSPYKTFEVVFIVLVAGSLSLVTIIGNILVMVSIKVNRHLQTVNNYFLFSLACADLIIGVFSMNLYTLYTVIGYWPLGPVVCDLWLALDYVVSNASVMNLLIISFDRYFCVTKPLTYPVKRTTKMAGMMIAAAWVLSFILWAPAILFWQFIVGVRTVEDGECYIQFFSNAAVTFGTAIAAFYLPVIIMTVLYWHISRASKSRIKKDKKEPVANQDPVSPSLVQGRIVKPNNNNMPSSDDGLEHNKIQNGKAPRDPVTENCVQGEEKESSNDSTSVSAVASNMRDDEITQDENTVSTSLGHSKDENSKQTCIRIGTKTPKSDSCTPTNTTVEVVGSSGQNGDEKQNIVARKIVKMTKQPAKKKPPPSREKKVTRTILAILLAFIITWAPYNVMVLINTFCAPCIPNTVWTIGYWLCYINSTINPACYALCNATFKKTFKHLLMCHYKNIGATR
test.details: cell-based
property.label: EC50

What EC50 value was documented for this molecule, C#CCOC(=O)C1=CCCN(C)C1 [Arecaidine propargyl ester, reference compound] ?
76.2 nM

What EC50 value was documented for this molecule, O=C(O)[C@H]1C2CCC(CC2)[C@@H]1Nc1nc(-c2n[nH]c3ncc(F)cc23)nc(C2CC2)c1F [ZSP1273] ?
> 12000 nM

###

test.details: in vivo
cond: both, SD, rat, po, 3 mg/kg, Cmax
property.label: Cmax (ng/mL)
State the answer as a number, implicitly in ng/mL.

What Cmax value was documented for this compound, "O=C(O)[C@H]1C2CCC(CC2)[C@@H]1Nc1nc(-c2n[nH]c3ncc(F)cc23)nc(C2CC2)c1F" ?
661

###

subject.of.test: H2 (Homo sapiens)
test.details: cell-based
cond: read-out: EC50
Where a name gives a salt, the structure may show the parent alone.
property.label: EC50 (µM)
State the answer as a number, implicitly in µM.

What EC50 value was documented for this molecule, Cc1nc(N)sc1CCN [Amthamine dihydrobromide, reference compound] ?
1.34

###

subject.of.test: influenza virus polymerase (PB1, PB2, NP, PA from A/California/04/2009 (H1N1) pdm09) (Influenza A virus, UniProt C3W5R8+C3W5R9)
Type: cell-based
cond: read-out: IC50, experiment 3
A collection of compounds and their measured pIC50
Entry type: numeric. Quantity: pIC50, the -log10 of concentration in molar units.

{"compound": "O=C(O)[C@H]1C2CCC(CC2)[C@@H]1Nc1nc(-c2n[nH]c3ncc(F)cc23)nc(C2CC2)c1F", "pIC50": 9.16}

Could you now look at the following compound, please?
What pIC50 value was documented for this compound, O=C(O)[C@H]1C2CCC(CC2)[C@@H]1Nc1nc(-c2c[nH]c3ncc(F)cc23)ncc1F [VX-787, reference compound] ?
8.73

###

test.details: in vivo
cond: both, beagle, dog, po, 15 mg/kg
property.label: AUC(0-t) (ng·h/mL)
State the answer as a number, implicitly in ng·h/mL.

What AUC(0-t) value was documented for this compound, "O=C(O)[C@H]1C2CCC(CC2)[C@@H]1Nc1nc(-c2n[nH]c3ncc(F)cc23)nc(C2CC2)c1F" ?
5030

###

Here's what we have: IC50 numbers for KDR (Homo sapiens).

{"compound": "O=C(O)[C@H]1C2CCC(CC2)[C@@H]1Nc1nc(-c2c[nH]c3ncc(F)cc23)ncc1F [VX-787, reference compound]", "subject.of.test": "KDR (Homo sapiens)", "IC50": "> 10 µM"}

Could you now look at the following compound, please?
Short answer please: IC50, KDR (Homo sapiens), entry "O=C(O)[C@H]1C2CCC(CC2)[C@@H]1Nc1nc(-c2n[nH]c3ncc(F)cc23)nc(C2CC2)c1F"
> 10 µM

###

subject.of.test: Beta1 (Homo sapiens, UniProt P08588)
Sequence (P08588 whole entry): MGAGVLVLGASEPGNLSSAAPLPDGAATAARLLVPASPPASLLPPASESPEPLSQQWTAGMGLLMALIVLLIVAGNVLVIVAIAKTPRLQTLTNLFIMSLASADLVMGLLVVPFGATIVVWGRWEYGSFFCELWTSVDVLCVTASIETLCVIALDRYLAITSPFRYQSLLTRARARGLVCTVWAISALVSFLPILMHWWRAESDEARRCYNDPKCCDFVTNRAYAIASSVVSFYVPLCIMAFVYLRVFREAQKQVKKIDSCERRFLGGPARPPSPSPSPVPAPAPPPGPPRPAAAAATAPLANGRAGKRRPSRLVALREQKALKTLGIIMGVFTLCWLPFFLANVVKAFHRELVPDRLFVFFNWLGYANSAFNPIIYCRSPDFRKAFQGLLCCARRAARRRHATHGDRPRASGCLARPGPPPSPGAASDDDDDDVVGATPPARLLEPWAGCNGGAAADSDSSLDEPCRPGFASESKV
test.details: cell-based
property.label: EC50

Short answer please: EC50, Beta1 (Homo sapiens, UniProt P08588), entry O=C(O)[C@H]1C2CCC(CC2)[C@@H]1Nc1nc(-c2n[nH]c3ncc(F)cc23)nc(C2CC2)c1F [ZSP1273]
> 12 µM

###

test.details: in vivo
cond: both, beagle, dog, iv, 1 mg/kg
property.label: AUC(0-t) (ng·h/mL)
State the answer as a number, implicitly in ng·h/mL.

What AUC(0-t) value was documented for this molecule, O=C(O)[C@H]1C2CCC(CC2)[C@@H]1Nc1nc(-c2n[nH]c3ncc(F)cc23)nc(C2CC2)c1F [ZSP1273] ?
791

###

subject.of.test: V1a (Homo sapiens, UniProt P37288)
Sequence (P37288 whole entry): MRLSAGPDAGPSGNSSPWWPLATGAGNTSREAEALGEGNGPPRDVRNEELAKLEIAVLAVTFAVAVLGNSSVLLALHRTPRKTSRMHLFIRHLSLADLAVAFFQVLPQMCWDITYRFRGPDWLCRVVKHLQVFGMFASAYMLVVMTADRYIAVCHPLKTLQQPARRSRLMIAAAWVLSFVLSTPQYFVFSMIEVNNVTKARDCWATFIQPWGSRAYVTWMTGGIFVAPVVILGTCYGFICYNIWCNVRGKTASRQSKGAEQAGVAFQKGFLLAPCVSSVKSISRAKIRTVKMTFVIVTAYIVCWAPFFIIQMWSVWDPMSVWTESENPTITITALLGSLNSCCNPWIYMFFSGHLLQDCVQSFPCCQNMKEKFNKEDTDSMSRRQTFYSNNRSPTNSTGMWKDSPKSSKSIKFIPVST
test.details: cell-based
property.label: EC50

What EC50 value was documented for this compound, "O=C(O)[C@H]1C2CCC(CC2)[C@@H]1Nc1nc(-c2n[nH]c3ncc(F)cc23)nc(C2CC2)c1F" ?
> 12 µM

###

Here's what we have: IC50 numbers for p38 alpha (Homo sapiens, UniProt Q16539).

{"compound": "O=C(O)[C@H]1C2CCC(CC2)[C@@H]1Nc1nc(-c2n[nH]c3ncc(F)cc23)nc(C2CC2)c1F [ZSP1273]", "IC50": "> 10 µM"}

Short answer please: IC50, p38 alpha (Homo sapiens, UniProt Q16539), entry O=C(O)[C@H]1C2CCC(CC2)[C@@H]1Nc1nc(-c2c[nH]c3ncc(F)cc23)ncc1F [VX-787, reference compound]
> 10 µM
